The following molecules are listed with their measured composite z-score values.
# Tested on: Inhibin beta A chain (activin A)
# procedureSummary: INHBA (activin A) binders on microarrays, primary screen, biochemical, small-molecule microarray, 635 nm fluorescence scan (AID 1107);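 further: mouse activin A protein probed at 4.33 µg/mL on printed slides; score merges bound-protein fluorescence near 667 nm with spot signal-to-noise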
# assayConditions: small-molecule microarray binding, higher = more signal
measuredParameter: composite z-score

O=C(NCC(O)CO)[C@]1(Cc2ccccc2)N=C(c2ccc(OCCCO)cc2)O[C@@H]1c1ccccc1 (some centres undefined)
0.148
[N-]=[N+]=NCc1ccccc1C[C@]1(C(N)=O)N=C(c2ccc(OCCCO)cc2)O[C@H]1c1ccccc1CN=[N+]=[N-]
1.41
COC(=O)[C@@]1(Cc2ccc(OC)cc2)[C@H]2c3cc(C(=O)N(C)C)n(Cc4ccc(C)c(F)c4F)c3C[C@H]2CN1C(=O)c1ccccc1
0.781
COc1ccc([C@H]2C[C@H]3C(Br)=C[C@]2(OC)C(=O)[C@]32CO2)cc1
0.504

---

# procedureSummary: basal MM1S mitochondrial membrane potential changes, profiling panel, cell-based, JC-1 fluorescence, 24 h, 100 nL compound (AID 1170); further: test concentration not given here
# assayConditions: higher = more signal
The following compounds are listed with their measured z-score values.
measuredParameter: z-score

O=C1O[C@@H](c2ccccc2)[C@@H](c2ccccc2)N2[C@@H](c3ccc(OCCO)cc3)[C@]3(C(=O)Nc4ccc(C#CCCO)cc43)[C@@H](C(=O)N3CCN(c4ncccn4)CC3)[C@H]12
0.173
COC(=O)Cn1c(C(=O)N2CCCC2)cc2c1C[C@H]1CN(C(=O)c3ccccc3)[C@@](Cc3ccccc3)(C(=O)OC)[C@@H]21
-1.25
CO[C@@H]1COC(=O)[C@H](COCc2ccccc2)NC(=O)CC=C[C@@H](C)[C@H](OC)COC(=O)[C@H](COCc2ccccc2)NC(=O)CC=C[C@H]1C
0.178

---

The following compounds are listed with their measured composite z-score values.
# Tested on: Inhibin beta A chain (activin A)
# procedureSummary: INHBA (activin A) binders on microarrays, primary screen, biochemical, small-molecule microarray, 635 nm fluorescence scan (AID 1107);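 further: mouse activin A protein probed at 4.33 µg/mL on printed slides; score merges bound-protein fluorescence near 667 nm with spot signal-to-noise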
# assayConditions: small-molecule microarray binding, higher = more signal
measuredParameter: composite z-score

COc1ccc(-c2ccccc2[C@@H]2N[C@H](C(=O)O)CC[C@H]2C)cc1
0.135
CO[C@H]1COC(=O)[C@H](C)COC(=O)[C@H](Cc2ccccc2)NC(=O)CC=C[C@H]1C
1.26
COC(=O)c1c(CC[C@@H](CO)NC(=O)N[C@H](Cn2cc(-c3cncn3C)nn2)C(C)C)oc(C(C)=O)c1C(=O)OC
-0.253
Cc1ccc(S(=O)(=O)c2cc3oc2CC[C@@H](CO)NC(=O)N(C)Cc2cn(nn2)C[C@H](Cc2ccccc2)NC3=O)cc1
-0.171
CCN1C(C)=C(C(=O)OC)[C@@H](c2ccccc2)N2C(=O)[C@@]3(C(=O)OC)O[C@@]12[C@@H]1C(=O)CCC[C@@H]13
1.01
[N-]=[N+]=NCc1ccccc1C[C@@]1(C(=O)O)N=C(c2ccc(OCCCO)cc2)O[C@@H]1c1ccccc1N=[N+]=[N-]
0.911
COCCOC(=O)N1C(=O)[C@@]2(c3cc(C#CCC(C(=O)OC)C(=O)OC)ccc31)[C@H](C(=O)N1CCN(c3ncccn3)CC1)[C@H]1C(=O)O[C@H](c3ccccc3)[C@H](c3ccccc3)N1[C@@H]2c1ccc(O)cc1
0.283

---

# procedureSummary: small-molecule microarray binders of probe aEGFR, primary screen, biochemical, biotinylated probe, 635/667 nm fluorescence (AID 1097);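 further: probe is a biotinylated anti-EGFR antibody binding compounds printed on slides; score combines fluorescence near 667 nm and signal to noise of each spot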
# assayConditions: higher = more signal
Kindly return TRUE if reported composite z-score is no lower than 0.04; return FALSE if it is lower.

O=C1c2ccccc2[C@](Cc2ccccc2I)(C(=O)NCC(F)(F)F)[C@H](c2ccc(CO)cc2)N1Cc1ccccc1C(F)(F)F
TRUE
COc1ccc([Si](C)(C)[C@H]2[C@H](CCO)O[C@@]3(C(=O)N(Cc4ccc(N5CCCCC5=O)cc4)c4ccccc43)[C@@H]2C)cc1
FALSE
O=C(CS)NCCCCCNC(=O)[C@H]1C[C@H]2C(=O)N[C@@H](Cc3ccccc3)C(=O)N2[C@H]1c1ccc(O)cc1
TRUE
COC(=O)[C@@]1(Cc2ccc(OC)cc2)[C@H]2c3cc(C(=O)N(C)C)n(CCc4ccc(OC)c(Br)c4)c3C[C@H]2CN1C(=O)c1ccccc1
TRUE
O=C1C2C=CC(C(O)Cc3ccccc3)N(Nc3ccc([N+](=O)[O-])cc3)C2C(=O)N1c1ccccc1 (configuration not stated)
TRUE
C[C@@H]1CC[C@H]2C(=O)N3CCC[C@H]3C(=O)N2[C@H]1c1ccc(Br)cc1
FALSE
COc1cc2c(cc1OC)CN(C(=O)[C@H]1[C@@H]3C(=O)O[C@@H](c4ccccc4)[C@@H](c4ccccc4)N3[C@@H](c3ccc(O)cc3)[C@]13C(=O)Nc1ccc(C#CC4(O)CCCCCC4)cc13)CC2
TRUE

---

The following compounds are listed with their measured composite z-score values.
# Tested on: Human papillomavirus type 1a protein E7 (residues 44-93)
# procedureSummary: HPV1a E7 fragment binders on microarrays, primary screen, biochemical, small-molecule microarray, residues 44-93, 635 nm fluorescence (AID 1108);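 further: E7 fragment applied at 1 µg/mL in TBST for 1 h at 4 C; score combines spot fluorescence with its signal to noise ratio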
# assayConditions: small-molecule microarray binding, fluorescence 635 nm; higher = more signal
measuredParameter: composite z-score

C[C@@H]1CC[C@H]2C(=O)N3[C@@H](CC[C@@H](C)[C@@H]3c3cccc(N4CCOCC4)c3)C(=O)N2[C@H]1c1cccc(N2CCOCC2)c1
0.384
N#Cc1ccc(NN2C(C(O)CCc3ccccc3)C=CC3C(=O)N(c4ccccc4)C(=O)C32)cc1 (centres undefined)
-0.317
C/C(=N\O)C(=O)NCCCCCNC(=O)OCc1ccccc1
0.63
CCOC(=O)C[C@H]1[C@H](OC(=O)Cc2ccc3c(c2)OCO3)[C@@H](NC(=O)CC(C)C)c2cc(OCCCO)ccc2N1C(=O)c1ccccc1
0.338
CO[C@H]1COC(=O)CC=C[C@H](C)[C@@H](OC)COC(=O)[C@H](Cc2ccccc2)NC(=O)CC=C[C@@H]1C
-1.64
CCOC(=O)[C@H]1C/C=C/C[C@H](C(=O)OCC)C(=O)O[C@H]2[C@@H](OC)O[C@H](CO)[C@@H](OC(=O)Nc3ccc(Br)cc3)[C@@H]2OC1=O
0.205
C[C@]1(C(=O)NCCN2CCOCC2)c2ccccc2C(=O)N(Cc2ccccc2)[C@H]1c1ccc(CO)cc1
-0.474
CCN1C(C)=C(C(=O)OC)[C@@H](c2ccccc2)N2C(=O)[C@@]3(C(=O)OC)O[C@@]12[C@@H]1C(=O)N(c2ccccc2)C(=O)[C@@H]13
0.121
CO[C@H]1COC(=O)[C@H](Cc2ccccc2)NC(=O)CC=C[C@@H](C)[C@H](OC)COC(=O)CC=C[C@@H]1C
0.482
C=CCC(OC(C)=O)[C@@H]1[C@@H](N(Cc2cc3ccccc3o2)C(=O)c2ccc(C)cc2)c2cc(OCCCO)ccc2N1C(=O)c1ccc2ccccc2n1 (some centres undefined)
-0.185
CCCC/C=C/[C@H]([C@@H](O)Cc1ccccc1)N(CC#Cc1ccccc1)Cc1ccccc1Br
-0.373
COc1cc2c(cc1OC)CN(C(=O)[C@H]1[C@@H]3C(=O)O[C@@H](c4ccccc4)[C@@H](c4ccccc4)N3[C@@H](c3ccccc3OCCO)[C@]13C(=O)Nc1ccc(C#CC4(O)CCCCCC4)cc13)CC2
-0.178
CC(=O)Nc1ccc([C@H]2[C@H](C)CC[C@H]3C(=O)N4[C@@H](CC[C@@H](C)[C@@H]4c4ccc(NC(C)=O)cc4)C(=O)N32)cc1
0.946
CC(C)[Si](OCCCNS(=O)(=O)c1ccc(Br)cc1)(C(C)C)C(C)C
0.186
CC(C)[Si]1(C(C)C)O[C@@H](c2ccccc2)c2cc(C3CC3)nc(-c3ccc(Oc4ccccc4)cc3)c21
-0.266
COc1ccc([Si](C)(C)[C@@H]2[C@@H](CCO)O[C@]3(C(=O)N(Cc4ccc(NC(=O)[C@H](C)O)cc4)c4ccccc43)[C@H]2C)cc1
1.39
C[C@@H]1NC(=O)[C@H](Cc2ccccc2)NC(=O)[C@@]23C(=O)N[C@@H](Cc4ccccc4)C2[C@H](C)[C@@]2(C)O[C@H]2C3/C=C/C/C=C\CNC1=O (some centres undefined)
-2.69
COc1cc(Cc2cc3c(c(CCc4ccccc4)n2)[Si](C(C)C)(C(C)C)OC3)cc(OC)c1OC
-0.0207
COc1cccc([C@@H]2[C@@H](C)CC[C@H]3C(=O)N4[C@H](c5cccc(OC)c5)[C@@H](C)CC[C@H]4C(=O)N23)c1
0.27
Cc1ccc(S(=O)(=O)N2[C@@H](c3ccccc3)C(C(=O)O)=CC[C@H]2c2ccccc2)cc1
0.433
CCOC(=O)C1=CCC(c2cccc3ccccc23)N(S(=O)(=O)c2ccc(C)cc2)C1 (centres undefined)
1.09
CC(=O)NCCCC[C@@H]1NC(=O)[C@H]2C[C@@H](C(=O)NCCCCCCN(C)C)[C@@H](c3ccc(O)cc3)N2C1=O
0.19
CO[C@@H]1COC(=O)[C@H](C)NC(=O)CC=C[C@@H](C)[C@H](NS(=O)(=O)c2ccc(C)cc2)COC(=O)CC=C[C@@H]1C
-0.232
CO[C@H]1O[C@H](CO)[C@@H](OC(=O)Nc2ccc3c(c2)OCO3)[C@H](OC(=O)Nc2ccccc2)[C@@H]1OC(=O)Nc1ccccc1
1.45
CCCC=C(CCC)[C@@H](NS(=O)(=O)c1ccc(C(F)(F)F)cc1)c1ccc(-c2ccccc2)cc1
1.32
CC(C)N1CC=CC23O[C@@H]4/C=C\CCCOC(=O)C4[C@H]2C(=O)N(CCCCCO)[C@@H]3C1=O (some centres undefined)
-1.46
Cc1ccc(S[C@]2(C(=O)NCCCN(C)C)CC(=O)N(Cc3ccccc3)[C@@H]2c2ccc(CO)cc2I)cc1
0.544
C#CCCCON=C1C[C@@H](O)[C@@H](O)[C@@H]2[C@@H]3C(=O)N(Cc4ccc5c(c4)OCO5)C(=O)[C@@H]3CC[C@H]12
1.36
COc1cc([C@@H]2N[C@H](C(=O)O)Cc3c2[nH]c2ccccc32)cc(OC)c1OC
0.297
